quantity measured: melting point

{"compound": "COc1cc(/C=C/C(=O)CC(=O)/C=C/c2cc(Cl)cc(Cl)c2O)ccc1O [CU021]", "quantity measured": "melting point", "reported measurement": "185 to 188 °C"}
{"compound": "COc1cc(/C=C/C(=O)CC(=O)/C=C/c2ncc[nH]2)ccc1O [CU152]", "quantity measured": "melting point", "reported measurement": "235 to 240 °C"}
{"compound": "O=C(/C=C/c1ccc(O)cc1)CC(=O)/C=C/c1ccc(O)cc1Cl [CU127]", "quantity measured": "melting point", "reported measurement": "131 to 138 °C"}
{"compound": "COc1ccc(O)c(/C=C/C(=O)CC(=O)/C=C/c2ccc(OC)c(O)c2)c1 [CU089]", "quantity measured": "melting point", "reported measurement": "80 to 86 °C"}
{"compound": "O=C(/C=C/c1ccc(O)cc1)CC(=O)/C=C/c1ccc2oc(=O)ccc2c1 [CU445]", "quantity measured": "melting point", "reported measurement": "240 to 246 °C"}
{"compound": "COc1ccc(/C=C/C(=O)CC(=O)/C=C/c2cccc(OC)c2O)cc1O [CU273]", "quantity measured": "melting point", "reported measurement": "155 to 157 °C"}
{"compound": "O=C(/C=C/c1ccc(O)cc1)CC(=O)/C=C/c1ccccc1-c1ccc2ccccc2c1 [CU529]", "quantity measured": "melting point", "reported measurement": "105 to 114 °C"}
{"compound": "O=C(/C=C/c1cccc2cc[nH]c12)CC(=O)/C=C/c1cccc2cc[nH]c12 [CU392]", "quantity measured": "melting point", "reported measurement": "211 to 215 °C"}
{"compound": "COc1ccc(/C=C/C(=O)CC(=O)/C=C/c2ccc(C)c(C)c2)cc1O [CU058]", "quantity measured": "melting point", "reported measurement": "150 to 154 °C"}

###

# melting point listing for each entry below
quantity measured: melting point

{"compound smiles": "CCN(CC)c1ccc(/C=C/C(=O)CC(=O)/C=C/c2ccc(O)cc2)c(OCc2ccc(Cl)cc2Cl)c1", "reported measurement": "73 to 80 °C"}
{"compound smiles": "O=C(/C=C/c1ccc(O)cc1)CC(=O)/C=C/c1cc(OCc2ccc(Cl)cc2Cl)ccc1[N+](=O)[O-]", "reported measurement": "157 to 161 °C"}
{"compound smiles": "O=C(/C=C/c1ccc(O)cc1)CC(=O)/C=C/c1ccccc1N1CCNCC1.O=C(O)C(F)(F)F.O=C(O)C(F)(F)F", "reported measurement": "139 to 150 °C"}
{"compound smiles": "COc1ccc(/C=C/C(=O)CC(=O)/C=C/c2cc3ccccc3n2C)cc1O", "reported measurement": "185 to 193 °C"}
{"compound smiles": "O=C(/C=C/c1ccc(O)c(Cl)c1)CC(=O)CCc1ccc(O)cc1", "reported measurement": "45 to 51 °C"}

###

# melting point listing for each entry below
quantity measured: melting point

{"compound": "COc1cc(/C=C/C(=O)CC(=O)/C=C/c2cc(OC)c(OC)c(OC)c2)ccc1O [CU006]", "quantity measured": "melting point", "reported measurement": "80 to 83 °C"}
{"compound": "COc1ccc2cc(/C=C/C(=O)CC(=O)/C=C/c3ccc(O)cc3)ccc2c1 [CU166]", "quantity measured": "melting point", "reported measurement": "217 to 220 °C"}
{"compound": "COc1ccc(/C=C/C(=O)CC(=O)/C=C/c2ccc3c(c2)OCCO3)cc1O [CU210]", "quantity measured": "melting point", "reported measurement": "163 to 165 °C"}
{"compound": "COc1cc(/C=C/C(=O)CC(=O)/C=C/c2ccccc2OC)ccc1O [CU067]", "quantity measured": "melting point", "reported measurement": "61 to 66 °C"}
{"compound": "Cc1ccc(/C=C/C(=O)CC(=O)/C=C/c2ccc(O)cc2)cc1C [CU056]", "quantity measured": "melting point", "reported measurement": "150 to 152 °C"}
{"compound": "COc1ccc(/C=C/C(=O)CC(=O)/C=C/c2ccc3ccn(Cc4ccccc4)c3c2)cc1O [CU444]", "quantity measured": "melting point", "reported measurement": "190 to 194 °C"}
{"compound": "COc1ccc(/C=C/C(=O)CC(=O)/C=C/c2ccc(O)cc2O)cc1O [CU258]", "quantity measured": "melting point", "reported measurement": "104 to 109 °C"}
{"compound": "COc1ccc(/C=C/C(=O)CC(=O)/C=C/c2ccc(O)c(OC)c2)cc1O [CU105]", "quantity measured": "melting point", "reported measurement": "78 to 85 °C"}
{"compound": "CN(C)c1ccc(Br)cc1/C=C/C(=O)CC(=O)/C=C/c1ccc(O)cc1 [CU534]", "quantity measured": "melting point", "reported measurement": "68 to 72 °C"}
{"compound": "COc1ccccc1/C=C/C(=O)CC(=O)/C=C/c1ccc(O)cc1 [CU066]", "quantity measured": "melting point", "reported measurement": "171 to 178 °C"}
{"compound": "COc1cc(/C=C/C(=O)CC(=O)/C=C/c2ccc(C)c(C)c2)ccc1O [CU057]", "quantity measured": "melting point", "reported measurement": "132 to 133 °C"}
{"compound": "O=C(/C=C/c1ccc(O)cc1)CC(=O)/C=C/c1ccc2c(c1)OCCO2 [CU232]", "quantity measured": "melting point", "reported measurement": "169 to 173 °C"}
{"compound": "COc1ccc(/C=C/C(=O)CC(=O)/C=C/c2cc(Cl)cc(Cl)c2O)cc1O [CU276]", "quantity measured": "melting point", "reported measurement": "212 to 214 °C"}

Data credit: patent US8962674B2
